- Method: in vitro
- Cond: human, Caco-2
Readout: Papp A→B (×10⁻⁶ cm/s)
Response body: numeric value in ×10⁻⁶ cm/s, unit text excluded.

{"columns": ["Smiles representation", "Papp A→B [×10⁻⁶ cm/s]"],
 "data": [
  ["C[C@@H]1C[C@H](N)C[C@H](c2ccncc2NC(=O)c2ccc(F)c(-c3c(F)cccc3F)n2)C1", 8.5]
]}

Now examine the next entry.
Ask: Need Papp A→B, item C[C@H]1C[C@@H](c2ccncc2NC(=O)c2ccc(F)c(-c3c(F)cccc3F)n2)C[C@@H](O)[C@@H]1O
Result: 28.8
